Assay target: ATX in human whole blood (Homo sapiens (Human))
Assay info: Assay B: Whole-Blood ATX Assay
Format: biochemical
Quantity kind: pIC50
Formally, pIC50 is defined as -log10 of the concentration c, with c in mol/L.

Which measured pIC50 value corresponds to CC(=O)N1CC2CCC(C1)N2c1ccc(CNc2ccc(OCc3ccc(C(F)(F)F)nc3)nn2)cc1 [Example 2.19] ?
8.70

---

Assay target: ATX in human whole blood (Homo sapiens (Human), UniProt Q13822)
Assay info: Assay B: Whole-Blood ATX Assay
Type: biochemical
Condition parameters: human whole-blood, 1 h at 37° C., formation of 18:2 LPA; read-out: Human whole blood LPA IC50
Quantity kind: pIC50
Formally, pIC50 is defined as -log10 of the concentration c, with c in mol/L.

Which measured pIC50 value corresponds to CC(=O)N1CCN(c2ccc(CNc3ccc(OCc4ccc(C(F)F)nc4)nn3)cn2)CC1 ?
8.36

Check CC(=O)N1CC2(C1)CN(c1ccc(CNc3ccc(OCc4ccc(C(F)(F)F)nc4)nn3)c(F)c1)C2 too.
8.85

Check CC(=O)N1CCC2(CC1)CN(c1ccc(CNc3ccc(OCc4ccc(C(F)(F)F)nc4)nn3)cc1)C2 too.
8.41

Check CC(=O)N1CCC2(CC1)CN(c1ccc(CNc3ccc(OCc4ccc(C(F)(F)F)nc4)nn3)cn1)C2 too.
8.46

Check CC(=O)N1CCN(c2ccc(CNc3ccc(OCc4ccc(C(F)(F)F)nc4)nn3)nc2)CC1 too.
8.03

Check CN1CC2(CC1=O)CN(c1ccc(CNc3ccc(OCc4ccc(C(F)F)nc4)nn3)cc1)C2 too.
8.70

Check CC(=O)N[C@H]1[C@@H]2CN(c3ccc(CNc4ccc(OCc5ccc(C(F)(F)F)nc5)nn4)cc3)C[C@@H]21 too.
8.40

Check CC(=O)N1CCC2(CC1)CN(c1ccc(CNc3ccc(OCc4ccc(C(F)F)nc4)nn3)cn1)C2 too.
8.39

Check CC(=O)N1CC2CC1CN2c1ccc(CNc2ccc(OCc3ccc(C(F)(F)F)nc3)nn2)cc1 (stereo not drawn) too.
8.44

Check CC(=O)N1CCN(c2ccc(CNc3ccc(OCc4ccc(C(F)F)nc4)nn3)c(F)c2)CC1 too.
8.55

Check CC(=O)N1C[C@@H]2CN(c3ccc(CNc4ccc(OCc5ccc(C(F)F)nc5)nn4)cc3)C[C@@H]2C1 too.
8.55

Check CC(=O)N(C)C1CCN(c2ccc(CNc3ccc(OCc4ccc(C(F)(F)F)nc4)nn3)cc2)CC1 too.
8.33

Check CC(=O)N1CCN(c2ccc(CNc3ccc(OCc4ccc(C(F)F)nc4)nn3)cc2F)CC1 too.
8.80

Check CC(=O)N1CCN(c2ccc(CNc3ccc(OCc4ccc(C(F)(F)F)nc4)nn3)cn2)CC1 too.
8.40

Check FC(F)c1ccc(COc2ccc(NCc3ccc(N4CCN(C5COC5)CC4)cc3)nn2)cn1 too.
8.66

Check CC(=O)N1CC2(C1)CN(c1ccc(CNc3ccc(OCc4ccc(C(F)F)nc4)nn3)cc1)C2 too.
9.00

Check CC(=O)N1CC2CCC1CN2c1ccc(CNc2ccc(OCc3ccc(C(F)(F)F)nc3)nn2)cc1 (stereo not drawn) too.
8.43

Check CC(=O)N1CCN(c2ccc(CNc3ccc(OCc4ccc(C(F)F)nc4)nn3)cc2)CC1(C)C too.
7.91

Check CC(=O)N1CC2(C1)CN(c1ccc(CNc3ccc(OCc4ccc(C(F)(F)F)nc4)nn3)cc1)C2 too.
8.77

Check CC(=O)N1CCC2(CC1)CN(c1ccc(CNc3ccc(OCc4ccc(C(F)F)nc4)nn3)nc1)C2 too.
8.29

Check CC(=O)N1CCN(c2ccc(CNc3ccc(OCc4ccc(C(F)(F)F)nc4)nn3)cc2)CC1 too.
8.33

Check CC(=O)N1CC[C@@H]2CN(c3ccc(CNc4ccc(OCc5ccc(C(F)(F)F)nc5)nn4)cc3)C[C@@H]2CC1 too.
8.15

Check CC(=O)N1CC2CC1CN2c1ccc(CNc2ccc(OCc3ccc(C(F)F)nc3)nn2)cc1 (stereo not drawn) too.
8.49

Check CC(=O)N1CCN(c2ccc(CNc3ccc(OCc4cnc(C(F)F)c(F)c4)nn3)cc2)CC1 too.
8.37

Check CC(=O)N1C[C@@H]2[C@H](C1)[C@H]1CN(c3ccc(CNc4ccc(OCc5ccc(C(F)(F)F)nc5)nn4)cc3)C[C@@H]21 too.
8.12

Check CC(=O)N1CCN(c2ccc(CNc3ccc(OCc4ccc(C(F)F)nc4)nn3)nc2)CC1 too.
8.17

Check CC(=O)N1CC2(C1)CN(c1ccc(CNc3ccc(OCc4ccc(C(F)(F)F)nc4)nn3)cc1F)C2 too.
8.39

Where do the numbers come from? From patent US11485727B2.
